# System: JEG-3
# test.details: Primary qHTS to identify gynecologic anti-cancer compounds using libraries of approved drugs and bioactive compounds (AID 1345084); note: potency is the fitted concentration of half-maximal effect; nearly all actives have a fitted effect of over 55% in size
# condition.info: Gynecologic cancer cell panel viability, ATPlite luminescence, 48 h; series mostly up to 57.5 µM
Records with an inconclusive call do not appear. Activity calls are given as the source filed them. Calls come from the whole dose curve; as a rule, active = well fitted cell-killing curve with a large enough effect; inconclusive = small, poorly fitted or top-dose-only effect, or effect the other way; inactive = flat fitted curve, though single readings scatter.

compound | Potency
C[C@H]1CCC/C=C/C2C[C@H](O)C[C@H]2[C@H](O)/C=C/C(=O)O1 (stereo not given in full) | 0.891 µM (active)
C[C@@H]1CCC/C=C/[C@H]2C[C@@H](O)C[C@@H]2[C@@H](O)/C=C/C(=O)O1 | 1 µM (active)
Fc1cc(F)c2c(c1)[C@H]1C=CC[C@H]1C(c1cccnc1)N2 (stereo not given in full) | 25.1 µM (active)
CC(=O)OC[C@]12C[C@H](O)C(C)=C[C@H]1O[C@@H]1[C@H](O)[C@@H](OC(C)=O)[C@@]2(C)[C@]12CO2 | 0.224 µM (active)
CN(C)c1cc2c(cc1Sc1nc3c(N)nccc3n1CCNCC(C)(C)C)OCO2 | 11.2 µM (active)

* * *

# Tested on: Zika virus NS2B-NS3 protease (linked construct)
# test.details: Confirmatory screen NINDS AMC qHTS for Zika virus inhibitors (AID 1347152); note: nearly all actives have a fitted effect of over 70% in size
# condition.info: Purified linked NS2B-NS3, AMC substrate fluorescence; series mostly up to 56.6 µM
Inconclusive results are not listed. Active and inactive are the calls of the source. Calls follow the shape of the dose curve; as a rule, active = well fitted inhibition curve with a large enough effect; inconclusive = small, poorly fitted or top-dose-only effect; inactive = flat fitted curve, though single readings scatter.
Outcome codes: label 1 (active), label 0 (inactive)

compound | tgt | discrete.label
C[C@@H]1[C@@H]2Cc3ccc(O)cc3[C@@]1(C)CCN2CCc1ccccc1 | Zika virus NS2B-NS3 protease (linked construct) | label 0
CN(C(=O)Cc1ccc(Cl)c(Cl)c1)[C@@H](CN1CCCC1)c1cccc(OCC(=O)O)c1 | Zika virus NS2B-NS3 protease (linked construct) | label 0
CC(C)=CCC[C@]1(C)C=Cc2c(O)c3c(c(CC=C(C)C)c2O1)O[C@]12C(=C[C@@H]4CC1C(C)(C)O[C@@]2(C/C=C(/C)C(=O)O)C4=O)C3=O | Zika virus NS2B-NS3 protease (linked construct) | label 1
COC(=O)c1cc2c(cn1)[nH]c1ccccc12 | Zika virus NS2B-NS3 protease (linked construct) | label 1
CNc1ccc2oc(C[C@@H]3OC4(CC[C@@H]3C)O[C@H]([C@@H](C)C(=O)c3ccc[nH]3)[C@H](C)C[C@H]4C)nc2c1C(=O)O (stereo not given in full) | Zika virus NS2B-NS3 protease (linked construct) | label 1

* * *

# test.details: KB-3-1 Cancer Cell Toxicity qHTS against the NCATS CANVASS Library (AID 1347366); note: nearly all actives have a fitted effect of over 75% in size
# condition.info: KB-3-1 viability, CellTiter-Glo luminescence, 72 h; series mostly up to 46.1 µM
Inconclusive results are not listed. The source made the active and inactive calls. The call rests on the fitted dose curve; in most records, active means well fitted cell-killing curve with a large enough effect; inconclusive means small, poorly fitted or top-dose-only effect; inactive means flat fitted curve, though single readings scatter.
Outcome codes: yes (1) = active, no (0) = inactive

molecule | discrete.label
CN1C(=O)[C@]23CC4C(C)(C)[C@@]5(C[C@@]41CN2CC[C@@]3(C)O)C(=O)Nc1c5ccc2c1OC=CC(C)(C)O2 (stereo not given in full) | no (0)
COC(=O)C1=C2Nc3ccccc3[C@@]23CCN2CC(C(C)=O)C1C[C@H]23 (stereo not given in full) | no (0)
CCCCC[C@@H]1OC(=O)[C@@H](C)N(C)C(=O)[C@H](CCCCC)OC(=O)C(C)N(C)C(=O)[C@H](CCCCC)OC(=O)[C@@H](C)N(C)C(=O)[C@H](CCCCC)OC(=O)C(C)N(C)C1=O (stereo not given in full) | yes (1)
CC1=CC(=O)C2=C(C)C[C@H](O)[C@@H]3[C@H](OC(=O)[C@@H]3C)[C@@H]12 | no (0)
c1ccc2c3c([nH]c2c1)CNCC3 | no (0)
